Attribution: ChEMBL document CHEMBL6074667

molecular target: Protein cereblon/Protein Wiz (Homo sapiens, UniProt Q96SW2+O95785); assay: Molecular glue activity at CRBN/HiBiT-tagged WIZ (unknown origin) expressed in HEK293T cells assessed as induction of WIZ degradation incubated for 18 hrs by Nano-Glo HiBiT-Lytic reagent based luminescence plate reader analysis relative to control; assay type: cell-based; design: concentration or dose not given beside the values
Sequence (O95785 whole entry, looked up): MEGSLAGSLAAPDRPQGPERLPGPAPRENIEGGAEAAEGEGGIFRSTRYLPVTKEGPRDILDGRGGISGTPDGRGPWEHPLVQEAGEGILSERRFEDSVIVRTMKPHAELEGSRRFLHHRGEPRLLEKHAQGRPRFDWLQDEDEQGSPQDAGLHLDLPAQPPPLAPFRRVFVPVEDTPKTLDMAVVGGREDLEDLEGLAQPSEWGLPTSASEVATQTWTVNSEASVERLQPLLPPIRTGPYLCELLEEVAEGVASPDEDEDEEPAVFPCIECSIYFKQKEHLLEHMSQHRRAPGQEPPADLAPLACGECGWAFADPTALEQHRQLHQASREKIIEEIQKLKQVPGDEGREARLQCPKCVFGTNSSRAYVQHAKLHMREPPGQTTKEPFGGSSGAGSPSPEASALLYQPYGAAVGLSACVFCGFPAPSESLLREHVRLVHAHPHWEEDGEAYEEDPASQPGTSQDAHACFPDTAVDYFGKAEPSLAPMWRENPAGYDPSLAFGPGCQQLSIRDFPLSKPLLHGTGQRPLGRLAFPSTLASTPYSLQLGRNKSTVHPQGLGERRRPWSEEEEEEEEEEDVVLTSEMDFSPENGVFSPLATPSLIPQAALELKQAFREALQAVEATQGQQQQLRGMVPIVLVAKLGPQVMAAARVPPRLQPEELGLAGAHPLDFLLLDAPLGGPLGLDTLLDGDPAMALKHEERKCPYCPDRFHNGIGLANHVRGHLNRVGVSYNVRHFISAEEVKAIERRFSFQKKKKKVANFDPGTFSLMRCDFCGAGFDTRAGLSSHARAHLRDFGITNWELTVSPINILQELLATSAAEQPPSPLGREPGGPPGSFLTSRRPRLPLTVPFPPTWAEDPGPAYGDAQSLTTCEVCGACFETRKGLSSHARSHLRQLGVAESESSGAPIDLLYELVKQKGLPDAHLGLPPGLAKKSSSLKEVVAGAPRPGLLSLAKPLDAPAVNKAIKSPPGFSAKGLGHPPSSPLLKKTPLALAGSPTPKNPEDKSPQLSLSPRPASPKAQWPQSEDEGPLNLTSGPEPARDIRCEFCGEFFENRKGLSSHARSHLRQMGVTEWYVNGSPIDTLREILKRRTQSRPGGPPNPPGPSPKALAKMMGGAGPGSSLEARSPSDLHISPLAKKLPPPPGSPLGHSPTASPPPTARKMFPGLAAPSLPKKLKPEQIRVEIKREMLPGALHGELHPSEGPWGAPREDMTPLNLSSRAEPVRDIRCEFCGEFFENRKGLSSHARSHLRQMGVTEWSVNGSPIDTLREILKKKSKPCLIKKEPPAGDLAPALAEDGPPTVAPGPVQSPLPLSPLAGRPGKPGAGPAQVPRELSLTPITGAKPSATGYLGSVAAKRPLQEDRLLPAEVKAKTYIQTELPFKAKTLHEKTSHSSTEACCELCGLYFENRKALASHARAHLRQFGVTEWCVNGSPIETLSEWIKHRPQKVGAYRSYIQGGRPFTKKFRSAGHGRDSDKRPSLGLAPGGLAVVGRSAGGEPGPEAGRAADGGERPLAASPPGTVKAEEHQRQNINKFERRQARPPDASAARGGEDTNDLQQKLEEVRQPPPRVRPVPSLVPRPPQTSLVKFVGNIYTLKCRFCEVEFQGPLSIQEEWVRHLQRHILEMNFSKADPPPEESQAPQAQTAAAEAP
Sequence (Q96SW2 whole entry, looked up): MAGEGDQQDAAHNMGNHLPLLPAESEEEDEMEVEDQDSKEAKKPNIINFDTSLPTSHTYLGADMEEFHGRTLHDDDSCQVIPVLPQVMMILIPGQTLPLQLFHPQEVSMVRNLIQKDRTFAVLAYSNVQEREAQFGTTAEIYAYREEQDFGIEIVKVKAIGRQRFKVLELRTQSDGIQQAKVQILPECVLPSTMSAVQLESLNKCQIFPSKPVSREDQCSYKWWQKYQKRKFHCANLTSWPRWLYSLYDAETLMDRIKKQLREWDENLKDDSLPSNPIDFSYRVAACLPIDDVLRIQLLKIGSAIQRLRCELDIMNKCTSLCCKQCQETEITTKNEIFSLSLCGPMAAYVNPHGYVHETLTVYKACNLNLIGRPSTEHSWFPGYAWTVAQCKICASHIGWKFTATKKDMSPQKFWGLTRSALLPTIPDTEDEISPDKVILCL
Listing: Activity of selected compounds
Give the value, in units of %, as a plain number.

Answered examples (3):
>>> recorded_value("CCN1C[C@H](Oc2ccc3c(c2)CN(C2CCC(=O)NC2=O)C3=O)CC[C@@H]1C (some centres not stated)")
88
>>> recorded_value("C[C@@H](Oc1ccc2c(c1)CN(C1CCC(=O)NC1=O)C2=O)[C@H]1CCCCN1C (some centres not stated)")
93
>>> recorded_value("CCN1C[C@@H](C)C[C@@H](Oc2ccc3c(c2)CN(C2CCC(=O)NC2=O)C3=O)C1 (mixture of isomers)")
42

Look up and state reported Activity for CCN1CCC2(CC2)[C@@H](Oc2ccc3c(c2)CN(C2CCC(=O)NC2=O)C3=O)C1 (some centres not stated)
82

Determine its reported Activity: CCN1C[C@H](C)C[C@@H](Oc2ccc3c(c2)CN(C2CCC(=O)NC2=O)C3=O)C1 (stereo in doubt; 10)
87

Provide Activity value for the following compound: CCN1C[C@H](Oc2ccc3c(c2)CN(C2CCC(=O)NC2=O)C3=O)CC[C@H]1C (some centres not stated)
60

Please look at this compound and report its Activity: CCN1CCC[C@H](Oc2ccc3c(c2)CN(C2CCC(=O)NC2=O)C3=O)C1 (some centres not stated)
12

* * *

target: Protein cereblon/Eukaryotic peptide chain release factor GTP-binding subunit ERF3A (Homo sapiens, UniProt Q96SW2+P15170); assay: Molecular glue activity at CRBN/HiBiT-tagged GSPT1 (unknown origin) expressed in human GripTite 293 MSR cells assessed as induction of GSPT1 degradation incubated for 20 hrs by Nano-Glo HiBiT-Lytic reagent based luminescence plate reader analysis; assay type: cell-based
Sequence (Q96SW2 whole entry): as the sequence (Q96SW2 whole entry, looked up) above
Sequence (P15170 whole entry): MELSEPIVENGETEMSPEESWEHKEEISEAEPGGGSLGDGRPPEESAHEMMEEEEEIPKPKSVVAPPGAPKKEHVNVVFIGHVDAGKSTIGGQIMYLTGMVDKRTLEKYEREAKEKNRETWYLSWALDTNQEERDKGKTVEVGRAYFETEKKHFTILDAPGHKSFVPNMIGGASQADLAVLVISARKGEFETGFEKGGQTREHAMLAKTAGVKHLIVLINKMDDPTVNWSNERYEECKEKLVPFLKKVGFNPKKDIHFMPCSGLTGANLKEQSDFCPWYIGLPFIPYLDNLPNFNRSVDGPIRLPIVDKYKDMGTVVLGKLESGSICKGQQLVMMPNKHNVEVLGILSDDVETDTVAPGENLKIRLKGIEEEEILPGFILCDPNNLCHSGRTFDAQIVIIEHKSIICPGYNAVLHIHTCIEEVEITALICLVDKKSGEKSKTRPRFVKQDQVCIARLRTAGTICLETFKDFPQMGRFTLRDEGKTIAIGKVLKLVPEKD
measurement_name: DC50

>>> recorded_value("CCN1CCC2(CC2)[C@@H](Oc2ccc3c(c2)CN(C2CCC(=O)NC2=O)C3=O)C1 (some centres not stated)")
"> 50 µM"

Determine its reported DC50: CCN1C[C@H](Oc2ccc3c(c2)CN(C2CCC(=O)NC2=O)C3=O)CC[C@H]1C (some centres not stated)
> 50 µM

Input CCN1CCCC[C@@H]1COc1ccc2c(c1)CN(C1CCC(=O)NC1=O)C2=O (some centres not stated) , output reported DC50.
> 50 µM

State its DC50: CCN1CCC[C@@H](Oc2ccc3c(c2)CN(C2CCC(=O)NC2=O)C3=O)C1 (some centres not stated)
> 50 µM

Give DC50 for CCN1CCC[C@H](Oc2ccc3c(c2)CN(C2CCC(=O)NC2=O)C3=O)C1 (some centres not stated)
> 50 µM

Supply recorded DC50 for CCN1C[C@H](Oc2ccc3c(c2)CN(C2CCC(=O)NC2=O)C3=O)CC[C@@H]1C (some centres not stated) here.
> 50 µM

Supply recorded DC50 for CCN1C[C@H](C)C[C@@H](Oc2ccc3c(c2)CN(C2CCC(=O)NC2=O)C3=O)C1 (mixture of isomers) here.
> 50 µM
